The binders listed here are annotated with their Kd.
Target Desc: SARS-CoV-2 S Trimer (SARS-CoV-2, UniProt P0DTC2 16-1213)
Experiment Notes: Octet BLI, IgG, avid
Quantity: Kd (nM)

Binder	Quantity	Reported Result
A-18 (antibody, V domains shown) VH: EVQLLESGGGLVQPGGSLRLSCAASGFTFSRYWMHWVRQAPGKGLVWVSRINSDGSSTTYADSVKGRFTISRDNAKNTLYLQMNSLRAEDTAVYYCARELYYYDSRGAEEGEGWFDPWGQGTLVTVSS VL: QSVLTQPPSVSGAPGQRVTISCTGISSNIGAGYDVHWYQQLPGTAPKLLIYGNSNRPSGVPDRFSASKSGTSAPLAITGLQAEDEADYYCQSSDRSLSGSVFGTGTKLTVL	Kd	1.69
A-13 (antibody, V domains shown) VH: QVQLVQSGAEVKKPGASVKVSCKASGYTFTDYYMHWVRQAPGQGLEWMGWINPNSGGTNSAQKFQGRVTMTRDTSINTAYMELSRLRSDDTAVYFCARDSHLAMVRGDFEYWGQGTLVTVSS VL: QSVLTQPASVSGSPGQSITISCTGTSSDVESYNVVSWYQQHPGKAPKLMIYEVSKRPSGVSHRFSGSKSGNTASLTISGLQAEDESDYYCCSYAGNSTWVFGGGTKLTVL	Kd	0.843
A-6 (antibody, V domains shown) VH: QVQLVQSGGGVVQPGRSLRLSCAASGFTFSNFAMHWVRQAPGKGLEWVAVILYDGINKYYADSVKGRFTISRGNSKNTLSLQMNSLRAEDTAVYYCARAQNYYDRSGTLQLDAFDIWGQGTMVTVSS VL: DIVMTQSPSSLSASVGDRVTITCRASQGIRNDLGWYQQKPGKAPKLLIYAASSLQSGVPSRFSGSGSGTDFTLTISSLQPEDFATYYCLQDYNYPLTFGGGTKVEIK	Kd	1.35
